The reported numbers originate from patent US20210253725A1.

system-name: T1, CD27 expressed on the cell surface of HT1080_CD27 cells (human, UniProt P26842 20-260); also: test concentration or dose not given here
T1 sequence (looked up): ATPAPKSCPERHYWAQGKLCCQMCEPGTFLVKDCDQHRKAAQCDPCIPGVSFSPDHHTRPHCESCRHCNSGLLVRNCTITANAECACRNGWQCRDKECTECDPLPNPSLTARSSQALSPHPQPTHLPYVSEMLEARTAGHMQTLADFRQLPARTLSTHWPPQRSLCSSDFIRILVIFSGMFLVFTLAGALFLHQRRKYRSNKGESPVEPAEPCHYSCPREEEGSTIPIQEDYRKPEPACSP
experiment-notes: cell-based or functional assay
Hi there, I'd appreciate the recorded Functional assay IL-8 for every entry that follows.
Numbers only, in abs. corr..

binder: P018.S.03.A.G05 (antibody, V domains shown, V regions on human Ig constant parts; also called AB27_58) VH: QSLEESGGDLVKPEGSLTLTCTASGFSFSSGGWICWVRQAPGRGLEWIACIYVGSSGTTHYASWAKGRFTISKTSSTTVTLQMTSLTAADTATYFCARGAVYGGGSYDNFHLWGPGTLVTVSS VL: AYDMTQTPASVSEPVGGTVTIKCQASQSIGSYLSWYQQKPGQRPKLLIYAASTLASGVQSRFKGSGSGTDYTLTISGVQSDDAATYYCQQGYNISNLDNTFGGGTEVVVK
value-units: abs. corr.
test-value: 0.031

Now, please, on to the next binder.
Inquiry: Determine from records and report Functional assay IL-8 for P018.S.05.A.D03 (antibody, V domains shown, V regions on human Ig constant parts; also called AB27_86) VH: QEQLEESGGDLVQPEGSLTLTCTVSGFSFNSNYWICWVRQAPGKGLEWIACIMTGDGSTYYATWAKGRFTISKTSSTTVTLQMTSLTAADTATYFCARGYDGIHGGDNYGHVFNLWGPGTLVTVSS VL: AFELTQTPFSVSAVVGGTVTINCQASENIYSLLAWYQQKPGQPPKLLIYRASTLASGVPSRFKGSGSGTQFTLIISDLESGDAATYYCQSYYINSSNSFGGGTEVVVK
Reply text: 0.1
